# subject_of_test: T1, ZIKV (prM80E) with a C-terminal myc-myc-hexahistidine tag (Zika virus, UniProt A0A024B7W1 104-694)
# T1 construct: also called ZIKV (prM80E)-mmH; ZIKV-mmH
# procedure_details: SPR, mAb captured, 37C
readout: t½ pH 7.4/t½ pH 6.0

>  <binder>
H4H25617P (antibody, V domains shown) VH: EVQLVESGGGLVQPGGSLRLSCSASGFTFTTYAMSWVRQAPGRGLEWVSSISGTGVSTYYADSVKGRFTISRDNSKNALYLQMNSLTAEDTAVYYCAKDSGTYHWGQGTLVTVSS VL: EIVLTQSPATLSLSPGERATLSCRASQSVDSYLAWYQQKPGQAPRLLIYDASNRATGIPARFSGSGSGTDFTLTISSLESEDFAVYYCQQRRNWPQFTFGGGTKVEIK

>  <readout>
t½ pH 7.4/t½ pH 6.0

>  <number>
0.8

$$$$
>  <binder>
H4H25566P (antibody, V domains shown) VH: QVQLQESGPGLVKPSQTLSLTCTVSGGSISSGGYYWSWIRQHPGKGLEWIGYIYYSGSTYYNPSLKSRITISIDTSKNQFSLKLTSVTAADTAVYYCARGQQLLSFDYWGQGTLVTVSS VL: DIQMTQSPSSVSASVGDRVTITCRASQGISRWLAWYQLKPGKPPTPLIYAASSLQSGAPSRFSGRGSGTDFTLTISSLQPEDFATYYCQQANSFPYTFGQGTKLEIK

>  <readout>
t½ pH 7.4/t½ pH 6.0

>  <number>
5.5

$$$$
>  <binder>
H4H25640P (antibody, V domains shown) VH: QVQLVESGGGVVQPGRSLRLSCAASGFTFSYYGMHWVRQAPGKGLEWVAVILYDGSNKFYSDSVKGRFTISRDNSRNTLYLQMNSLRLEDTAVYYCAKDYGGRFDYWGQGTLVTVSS VL: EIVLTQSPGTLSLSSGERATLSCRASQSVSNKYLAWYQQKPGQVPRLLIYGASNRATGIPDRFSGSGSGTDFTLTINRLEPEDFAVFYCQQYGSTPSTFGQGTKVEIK

>  <readout>
t½ pH 7.4/t½ pH 6.0

>  <number>
1.9

$$$$
